This listing pairs binders with measured kon.
Biological target: T1, human DLL3 (ACRO, DLL3-H52H4) (human, UniProt Q9NYJ7 27-492)
T1 construct: Bought
T1 sequence: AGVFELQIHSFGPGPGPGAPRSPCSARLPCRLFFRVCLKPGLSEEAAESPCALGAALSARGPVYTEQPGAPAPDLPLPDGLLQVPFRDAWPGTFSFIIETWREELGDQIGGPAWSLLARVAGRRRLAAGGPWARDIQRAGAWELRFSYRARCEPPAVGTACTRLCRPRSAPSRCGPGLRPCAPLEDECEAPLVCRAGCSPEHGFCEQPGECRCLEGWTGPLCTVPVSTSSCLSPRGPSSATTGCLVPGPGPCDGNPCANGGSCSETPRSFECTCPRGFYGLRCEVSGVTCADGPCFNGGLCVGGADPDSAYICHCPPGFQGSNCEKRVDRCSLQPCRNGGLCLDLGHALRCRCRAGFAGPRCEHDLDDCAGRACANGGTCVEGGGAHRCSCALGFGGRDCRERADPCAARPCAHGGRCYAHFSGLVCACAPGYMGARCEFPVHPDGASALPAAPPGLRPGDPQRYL
Assay: SPR Biacore 8K, Ab captured on Protein A
Write the answer as a number in M⁻¹ s⁻¹, unit excluded.

- binder: "hu110L1H6 (antibody, human IgG1, kappa, V domains shown) VH: EVQLVQSGAEVKKPGASVKVSCKTSGYTFTDYYMNWVRQAPGQSLEWMGIINPYNVGTSYTQKFKGRVTITVDKSASTAYMELSSLRSEDTAVYYCARHFYDSSYLTYSTMDYWGQGTTVTVSS VL: DIVMTQSPDSLAVSLGERATINCKASENVGIFVSWYQQKPGQSPKLLIYGASNRYTGVPDRFSGSGSATDFTLTISSLQAEDVAVYYCGQSHSYPLTFGQGTKLEIKR"
  measurement type: "kon"
  reported measurement: 520000

Look up and report measured kon for this entry: hu98L1H1 (antibody, human IgG1, kappa, V domains shown) VH: EVQLVESGGGLVQPGGSLRLSCAASGFTFSDYGIHWVRQAPGKGLEWVAYISSGGYTIYYADTVKGRFTISRDNAKNSLYLQMNSLRAEDTAVYYCARGDYDDIFYTMDYWGQGTTVTVSS VL: DIQMTQSPSSLSASVGDRVTITCRASRDITKFLNWYQQKPGKAPKLLIYYTSRLHSGVPSRFSGSGSGTDFTLTISSLQPEDFATYYCQQGNTLPWTFGGGTKVEIKR
1.55e+06

Look up kon of hu30L3H1 (antibody, human IgG1, kappa, V domains shown) VH: EVQLVQSGAEVKKPGASVKVSCKASGYTFTDYYMNWVRQAPGQSLEWMGIINPYNGDTSYNQKFRGRVTITVDKSASTAYMELSSLRSEDTAVYYCARYHYGPHLEGYFDVWGQGTTVTVSS VL: DIVMTQSPKSLAVSLGERATINCKASENVGYVSWYQQKPGQSPKLLIYGASNRYTGVPDRFSGSGSATDFTLTISSLQAEDVAVYHCGQSYSYPLTFGQGTKLEIKR and report it.
1.63e+06
